Target: T1, recombinant human TROP2 extracellular domain (aa 1-274) comprising His tag (human, UniProt P09758 27-274)
T1 construct: Used here for all assays on recombinant human TROP2 (ELISA, immunoblot, SPR, crystal), although only some of them name the catalogue number; also called human recombinant TROP2; recombinant human TROP2 protein; not shown: His tag
T1 sequence: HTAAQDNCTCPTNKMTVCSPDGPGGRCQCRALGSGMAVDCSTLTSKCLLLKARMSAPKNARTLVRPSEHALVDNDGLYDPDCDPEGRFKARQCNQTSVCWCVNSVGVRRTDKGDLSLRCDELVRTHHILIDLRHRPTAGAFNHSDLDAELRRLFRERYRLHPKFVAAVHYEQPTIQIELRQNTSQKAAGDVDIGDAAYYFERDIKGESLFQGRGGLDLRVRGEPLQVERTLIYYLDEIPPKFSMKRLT
Assay: ELISA, coated rh TROP2
// boundary case: EC50 equal to 100 pM maps to N; strictly smaller maps to Y

>  <BINDER>
KD029 (antibody, V domains shown, KD002 humanized variant) VH: QVQLQESGGGLVQPGGSLRLSCAASGFPFSSADMSWVRQAPGKGPEWVSYINADGSKTYYPDTVKGRFTISRDNSKNTLYLQMNNLRAEDTALYRCARAKLTDTHYVEDYWGQGTMVTVSS

>  <CLASS>
N

$$$$
>  <BINDER>
KD033 (antibody, V domains shown, KD002 humanized variant) VH: QVQLQESGGGLVQPGGSLRLSCAASGFPFSSADMSWVRQAPGKGLEWVSVINADGSKTYYADTVKGRFTISRDNSKNTLYLQMNSLRAEDTAVYRCARAKLTDTHYVEDYWGQGTMVTVSS

>  <CLASS>
N

$$$$
>  <BINDER>
KD036 (antibody, V domains shown, KD002 humanized variant) VH: QVQLQESGGGLVQPGGSLRLSCAASGFPFSSADMSWVRQAPGKGLEWVSYINADGSKTYYPDTVKGRFTISRDNSKNTLYLQMNSLRAEDTAVYRCARAKLTDTHYVEDYWGQGTMVTVSS

>  <CLASS>
N

$$$$
>  <BINDER>
KD024 (antibody, V domains shown, KD002 humanized variant) VH: QVQLVESGGGLVQPGGSLRLSCAASGFPFSSADMSWVRQAPGKGPEWVSYINADGSKTYYPDTVKGRFTISRDNAKNTLYLQMNSLRAEDTAVYRCARAKLTDTHYVEDYWGQGTQVTVSS

>  <CLASS>
Y

$$$$
>  <BINDER>
KD040 (antibody, V domains shown, KD002 humanized variant) VH: QVQLQESGGGLVQPGGSLRLSCAASGFPFSSADMSWVRQAPGKQREWVSYINADGSKTYYADTVKGRFTISRDNSKNTLYLQMNSLRAEDTAVYRCARAKLTDTHYVEDYWGQGTMVTVSS

>  <CLASS>
Y

$$$$
>  <BINDER>
KD037 (antibody, V domains shown, KD002 humanized variant) VH: QVQLQESGGGLVQPGGSLRLSCAASGFPFSSADMSWVRQAPGKGLEWVSYINADGSKTYYADTVKGRFTISRDNSKNTLYLQMNNLRAEDTAVYRCARAKLTDTHYVEDYWGQGTMVTVSS

>  <CLASS>
N

$$$$
>  <BINDER>
KD035 (antibody, V domains shown, KD002 humanized variant) VH: QVQLQESGGGLVQPGGSLRLSCAASGFPFSSADMSWVRQAPGKGPEWVSYINADGSKTYYADTVKGRFTISRDNSKNTLYLQMNSLRAEDTAVYRCARAKLTDTHYVEDYWGQGTMVTVSS

>  <CLASS>
N

$$$$
>  <BINDER>
KD022 (antibody, V domains shown, KD002 humanized variant) VH: EVQLVESGGGLVQPGGSLRLSCAASGFPFSSADMSWVRQAPGKGPEWVSYINADGSKTYYADTVKGRFTISRDNAKNTLYLQMNSLRAEDTAVYYCARAKLTDTHYVEDYWGQGTQVTVSS

>  <CLASS>
Y

$$$$

Data origin, for the record: patent US20240360242A1
